System: HOP-62 NSCLC
Experiment: NCI-60 one-dose screen, 48 h (100 = growth as untreated, 0 = no growth, -100 = all killed)
Conditions: 10 µM
Description: Growth inhibition of the HOP-62 human Non-Small Cell Lung tumor cell line is measured as a screen for anti-cancer activity. Cells are grown in 96 well plates and exposed to the test compound for 48 hours. Compounds are tested at a single concentration, which is 10^-5 M for most compounds. The reported endpoint is percent growth (GI% or GIPRCNT), where numbers from 0 - 100% represent growth inhibition, and numbers from -100% - 0 represent cell death. […]
Compounds without any hit were thinned out: in the full panel of roughly 83,000, 20% have a hit.
Is growth at least 90%? Then True. If not, False.

{"columns": ["compound", "label.class"],
 "data": [
  ["CCN(CC)CCCC(C)Nc1ccc2ccc(Cl)cc2n1 (configuration not stated)", "False"],
  ["Clc1ccccc1N=Cc1ccc2c(c1)OCO2", "True"],
  ["O=C(CC(C(=O)c1ccccc1)N1CCOCC1)c1ccccc1 (configuration not stated)", "True"],
  ["COc1ccc(-c2nc3ccccn3c2-c2nnc(-c3cc(OC)c(OC)c(OC)c3)o2)cc1", "False"],
  ["O=C1/C(=C\\c2ccc(Br)cc2)CN(C(=O)c2ccccc2F)C/C1=C\\c1ccc(Br)cc1", "False"]
]}

Moving on to the next compound.
IN: Please check the record ClC(Cl)(Cl)c1nc2nccnc2[nH]1 and state if its growth is at or above 90%.
OUT: True

* * *

System: SNB-75 CNS
Test: NCI-60 one-dose screen, 48 h
Settings: 10 µM
This is part of a sample that, as a whole, favours compounds with a hit. Of some 83,000 tested, about 20% had one in any assay. Active and inactive are the calls of the source. Rule for the calls: active = growth percent below 10; inactive = the rest.
Just give me one of these, please: Yes (active), No (inactive)

IN: In this assay, the call recorded for CN(C)C=Nc1cc(Cl)ccc1Cl was what?
OUT: No

IN: In this assay, the call recorded for Cc1cc(N(CCCNc2ccnc3cc(Cl)ccc23)Cc2ccc3c(c2)OCO3)nc(N2CCOCC2)n1 was what?
OUT: No

* * *

Test system: OVCAR-5 ovarian
Assay: NCI-60 one-dose screen, 48 h (100 = growth as untreated, 0 = no growth, -100 = all killed)
Settings: 10 µM
This is part of a sample that, as a whole, favours compounds with a hit. Of some 83,000 tested, about 20% had one in any assay. Activity calls are given as the source filed them. The calls were made as follows: active = growth percent below 10; inactive = the rest.
Overview of reported growth across a group of molecules:

IN: Give the measured growth of COc1cc(-c2nnc(-c3c(-c4ccc(F)cc4)nc4ccccn34)o2)cc(OC)c1OC .
OUT: 95.6% (inactive)

IN: Give the measured growth of NC(=O)CC1(c2ccccc2)CCCCC1 .
OUT: 111% (inactive)

IN: Give the measured growth of CSc1nc(=O)n(Cc2ccc(F)cc2)c(=O)n1Cc1ccc(C)cc1 .
OUT: 102% (inactive)

* * *

Overview of reported growth across a group of molecules:
Test system: BT-549 breast
Experiment: NCI-60 one-dose screen, 48 h (100 = growth as untreated, 0 = no growth, -100 = all killed)
Conditions: 10 µM
This is part of a sample that, as a whole, favours compounds with a hit. Of some 83,000 tested, about 20% had one in any assay.
// return numeric value only (unit: %, not printed)

// worked examples, growth included
{"columns": ["molecule", "growth [%]"],
 "data": [
  ["COc1ccccc1CNCCN1C(=O)c2ccc3c4c(ccc(c24)C1=O)C(=O)N(CCNCc1ccccc1OC)C3=O", -94],
  ["O=C1N=NC2=C1c1c3ccccc3c(O)n1CC2", 110],
  ["O=C1/C(=C\\c2ccc(Cl)cc2)CN(C(=O)c2ccccc2)C/C1=C\\c1ccc(Cl)cc1", 19.8]
]}

IN: Give the measured growth of COc1cc(C(=O)/C=C/c2cc(-c3cc(OC)c(OC)c(OC)c3)n[nH]2)cc(OC)c1OC .
OUT: -79

IN: Give the measured growth of COc1cc(Cl)cc(-c2nn(-c3cccc(NC(=O)Nc4ccc(Cl)c(C(F)(F)F)c4)c3)cc2-c2ccncc2)c1 .
OUT: 9.81

IN: Give the measured growth of COc1cc(Nc2ccnc(NCCNc3ccnc4cc(Cl)ccc34)n2)cc(OC)c1 .
OUT: 51.4

IN: Give the measured growth of COc1cc(-c2nnc(-c3c(-c4ccc(F)cc4)nc4ccccn34)o2)cc(OC)c1OC .
OUT: 66.1

IN: Give the measured growth of O=C(CCCCCCC(=O)Nc1cccnc1)NO .
OUT: 69.5

IN: Give the measured growth of Oc1[nH]c2ccc(Cl)cc2c1/C=c1/ccc2c(c1)N=C(c1cccs1)N=2 .
OUT: 57.4

IN: Give the measured growth of COc1ccc2c(c1)N(CCO)C1=C(C(=O)OC1)C2c1ccc(OC)c(OC)c1 (stereo unspecified) .
OUT: 64.2

IN: Give the measured growth of CCN1CCN(c2nc3ccccc3c3c(=O)c4ccccc4sc23)CC1 .
OUT: 69

IN: Give the measured growth of CSc1nn(-c2ccccc2)c2ncnc(Oc3ccc(C)cc3)c12 .
OUT: 98

* * *

Test system: MOLT-4 leukemia
Assay: NCI-60 one-dose screen, 48 h (100 = growth as untreated, 0 = no growth, -100 = all killed)
Details: 10 µM
The panel holds about 83,000 compounds, 20% with a hit somewhere; the sample as a whole holds those more often.
// boundary case: growth equal to 50% maps to Not fulfilled; strictly smaller maps to Fulfilled

{"columns": ["compound", "label.class"],
 "data": [
  ["CCn1cc(C(=O)O)c(=O)c2cnc(N3CCCC3)nc21", "Not fulfilled"],
  ["Clc1ccc(Nc2ccnc(NCCNc3ccnc4cc(Cl)ccc34)n2)cc1", "Fulfilled"],
  ["COc1ccc(-c2nc3ncccn3c2-c2nnc(-c3ccc(F)cc3)o2)cc1", "Not fulfilled"]
]}

IN: Does this compound meet the criterion growth < 50%? O=C(CCCCC(=O)Nc1ccc2c(c1)/C(=C/c1ccc[nH]1)C(=O)N2)NO
OUT: Not fulfilled

IN: Does this compound meet the criterion growth < 50%? COc1cc(Cl)cc(-c2nn(-c3cccc(NC(=O)c4ccc(Cl)c(Cl)c4)c3)cc2-c2ccncc2)c1
OUT: Not fulfilled

IN: Does this compound meet the criterion growth < 50%? COc1ccc(-c2nc3ccccn3c2-c2nnc(-c3cc(OC)c(OC)c(OC)c3)o2)cc1
OUT: Not fulfilled

IN: Does this compound meet the criterion growth < 50%? CC(C)(C)NC/C(=C\c1ccccc1)C(=O)c1ccccc1
OUT: Fulfilled

* * *

System: HCT-116 colon
Test: NCI-60 one-dose screen, 48 h (100 = growth as untreated, 0 = no growth, -100 = all killed)
Details: 10 µM
About 83,000 compounds went through this panel and 20% of them were active in at least one assay; those are over-represented in the sample as a whole.
Is growth at least 90%? Then 1 (yes). If not, 0 (no).

{"columns": ["compound", "label.class"],
 "data": [
  ["C=C(C(=O)c1ccccc1)C(NC(C)(C)C)c1ccccc1 (stereo unspecified)", "0 (no)"],
  ["CCN1CCC2(CC1)OC(c1ccccc1)C(c1ccccc1)O2 (stereo unspecified)", "1 (yes)"],
  ["O=C(Nc1ccc(Cl)c(Cl)c1)Nc1c(Oc2ccc(Cl)c(Cl)c2)ccc(Cl)c1S(=O)(=O)O", "0 (no)"],
  ["CCOC(=O)c1ccoc1", "1 (yes)"],
  ["Cc1ccc(CC#N)cc1C", "1 (yes)"]
]}

IN: Please check the record CCN(CC)CCC(=O)Nc1cccc2c1C(=O)c1c(c(O)c3ccccc3c1O)C2=O and state if its growth is at or above 90%.
OUT: 0 (no)

IN: Please check the record COc1ccc2c(c1OC)O/C(=C\c1ncc([N+](=O)[O-])n1C)C2=O and state if its growth is at or above 90%.
OUT: 0 (no)

IN: Please check the record O=C(Nc1ccccc1)Nc1cccc(-n2cc(-c3ccncc3)c(-c3ccc(O)c(Cl)c3)n2)c1 and state if its growth is at or above 90%.
OUT: 0 (no)

IN: Please check the record COc1cc2c(cc1OCCCCCCN1CCN(CC(=O)Nc3ccc(Cl)cc3C(=O)c3ccccc3Cl)CC1)N=CC1CCCN1C2=O (stereo unspecified) and state if its growth is at or above 90%.
OUT: 0 (no)

IN: Please check the record COc1ccc(Cl)cc1-n1nnc(-c2nc3ccccc3[nH]2)c1N and state if its growth is at or above 90%.
OUT: 0 (no)

* * *

System: SNB-75 CNS
Assay: NCI-60 one-dose screen, 48 h
Settings: 10 µM
Procedure: Growth inhibition of the SNB-75 human tumor cell line is measured as a screen for anti-cancer activity. Cells are grown in 96 well plates and exposed to the test compound for 48 hours. Compounds are tested at a single concentration, which is 10^-5 M for most compounds. The reported endpoint is percent growth (GI% or GIPRCNT), where numbers from 0 - 100% represent growth inhibition, and numbers from -100% - 0 represent cell death. For example, a value of 40 represents 60% growth inhibition. […]
This is part of a sample that, as a whole, favours compounds with a hit. Of some 83,000 tested, about 20% had one in any assay. Active and inactive are the calls of the source. How the source made its calls: active means growth percent below 10; inactive means the rest.
Just give me one of these, please: active, inactive

Please review the entries below; each comes with its answer.
{"columns": ["compound", "assayed.target", "label.class"],
 "data": [
  ["O=c1cc(-c2ccccc2)[nH]n1-c1nc2ccccc2[nH]1", "SNB-75 CNS", "inactive"],
  ["O=C(Nc1ccc(CO)cc1)c1ccccc1Nc1ccnc(C(F)(F)F)c1", "SNB-75 CNS", "inactive"],
  ["COc1cccc(NC(=O)c2sc3nc4c(cc3c2N)C(O)CCC4)c1 (stereo unspecified)", "SNB-75 CNS", "inactive"],
  ["ClCC#CCSc1ncnc2c1ncn2CC#CCCl", "SNB-75 CNS", "active"]
]}

IN: In this assay, the call recorded for CC(=O)c1nc2ccccc2n1CCNC(N)=O was what?
OUT: inactive

IN: In this assay, the call recorded for O=C(Nc1ccc(OS(=O)(=O)c2ccccc2)cc1)C12CC3CC(CC(C3)C1)C2 was what?
OUT: inactive

IN: In this assay, the call recorded for COc1cc(Cc2cc(-c3ccc(Cl)cc3)n[nH]c2=O)ccc1O was what?
OUT: inactive

IN: In this assay, the call recorded for O=[N+]([O-])c1cccc(-c2ncc(-c3ccc(Cl)cc3Cl)[nH]2)c1 was what?
OUT: inactive

IN: In this assay, the call recorded for COc1cc(-c2nc(-c3nnc(-c4ccccc4Cl)o3)c3ccccn23)cc(OC)c1OC was what?
OUT: inactive

IN: In this assay, the call recorded for CCCCCCN(CCCCCC)CC(O)c1ccc2c3c(cccc13)CC2 (stereo unspecified) was what?
OUT: inactive

IN: In this assay, the call recorded for CCN(CC)CCC(=O)Nc1cccc2c1C(=O)c1c(c(O)c3ccccc3c1O)C2=O was what?
OUT: inactive

All values here come from PubChem BioAssay (NCI).
